Data credit: a melting point compilation (Tetko et al.; mined from patent text by program, amines drawn as free bases though some values may be those of a salt)

# maps each entry to its melting point
observable: melting point

>>> observed_result("O=C1NC(=O)C(c2ccc(OCCC3Oc4ccccc4N(Cc4cccc(Cl)c4)C3=O)cc2)S1 (centres undefined)")
"70 to 72 °C"
>>> observed_result("C#CCSc1nn(C(=O)NS(=O)(=O)c2c(C)cccc2OCCC)c(=O)n1C")
"151 °C"
>>> observed_result("O=Cc1ccc(-c2cnn(-c3ccc(OC(F)(F)F)cc3)c2)cc1")
"107 to 109 °C"
>>> observed_result("CCOC(=O)Nc1cc(C(C)C(O)(Cn2cncn2)c2ccc(F)cc2F)ccn1 (centres undefined)")
"177 to 179 °C"

====

Catalogue of melting point readings, one per entry.
observable: melting point

>>> observed_result("Cc1ccc(S(=O)(=O)OC(C)C(=O)N2CCOCC2)cc1 (stereo not drawn)")
"75 to 77 °C"
>>> observed_result("CCCCC(=O)Nc1ccc(-c2ccc(-c3ccccc3Cl)n2Cc2cccc(N)n2)cc1")
"145 to 150 °C"
>>> observed_result("CC1Cc2cc(NS(C)(=O)=O)ccc2OC12CCC(N1CCc3ccccc3C1)CC2 (stereo not drawn)")
"135 °C"
>>> observed_result("O=C1c2ccccc2C(=O)N1CCCCOc1ccccn1")
"77 to 78 °C"
>>> observed_result("CCOC(=O)CNc1ccc(OCC(=O)OCC)c(NC(=O)c2ccc(OCCCCc3ccccc3)cc2)c1")
"61 to 63 °C"
>>> observed_result("OCC1CC2CC2N1c1cncc(Br)c1 (stereo not drawn)")
"90.4 to 93.5 °C"
>>> observed_result("CCCCCS(=O)(=O)NCC(C)Cc1ccc(OCCOC)cc1Oc1ncc(C(F)(F)F)cc1Cl (stereo not drawn)")
"80 to 82 °C"
>>> observed_result("CCOc1cc2c(Nc3cc(OC)c(Cl)cc3Cl)c(C#N)cnc2cc1OCCCN1CCN(CC)CC1")
"127 to 130 °C"

====

# melting point values compiled below
observable: melting point

>>> observed_result("Cc1cnccc1N1CCN(CC(=O)c2ccc(NS(C)(=O)=O)cc2)CC1")
"201 to 205 °C"
>>> observed_result("CS(=O)(=O)c1cccc(C(=O)O)c1O")
"180 °C"
>>> observed_result("Cc1c(SCCCSCCO)ccnc1CNc1cnc2ccccc2c1")
"125 to 126 °C"
>>> observed_result("COc1ccc2c(c1)c(CC(=O)OCCNC(=O)c1cccnc1)c(C)n2C(=O)c1ccc(Cl)cc1")
"123 to 125 °C"
>>> observed_result("CC(C)(C)CC(C)(C)c1ccc(C(=O)O)cc1")
"153 to 155 °C"
>>> observed_result("COC(=O)c1ccccc1-c1cc(-c2ccccn2)on1")
"54 to 57 °C"
>>> observed_result("O=C(O)CCCCCCOc1ccc(-c2ccccc2)cc1")
"78 to 79 °C"

====

observable: melting point

>>> observed_result("CCc1cc(CCCOc2c(C)cc(-c3noc(C)n3)cc2C)on1")
"85 to 86 °C"
>>> observed_result("Cc1ccc(S(=O)(=O)OC[C@H]2OC(=O)N[C@H]2Cc2ccccc2)cc1")
"149 to 150 °C"
>>> observed_result("CCCc1ccc(C(=O)NCCc2cccs2)cc1")
"97 to 99 °C"

====

observable: melting point

>>> observed_result("COC(=O)c1cc(CO)ccc1OCc1nc(-c2ccco2)oc1C")
"131 to 132 °C"
>>> observed_result("Cn1cc(C(=O)O)c(=O)c2c3ccc(F)c(N4CCC(O)(c5cccc(C(F)(F)F)c5)CC4)c3ncc21")
"245 °C"
>>> observed_result("O=C(CCNc1c(C(=O)O)[nH]c2cc(Cl)ccc12)c1ccc(F)cc1")
"248 to 250 °C"
>>> observed_result("CCOC(=O)C(C(=O)OCC)c1cccc2ccccc12")
"57 to 59 °C"
>>> observed_result("CN(Cc1ccccc1)c1cc(Cl)c(C=O)c(Cl)c1")
"66 to 70 °C"
>>> observed_result("CC(C)(C)OC(=O)C(C1NC(C(=O)O)C2(CCSCC2)S1)N1C(=O)c2ccccc2C1=O (stereo not given)")
"210 to 212 °C"
>>> observed_result("NC(N)=Nc1nc(-c2csc(CNC(=O)CO)n2)cs1")
"239 °C"
>>> observed_result("COc1ccc(N2CCN(c3ccc(OC)nc3-c3ccc(N(C)C)cc3)CC2)cc1")
"163 to 165 °C"
>>> observed_result("CC(=O)NS(=O)(=O)c1cccc(-c2cccc(-c3cc(-c4ccc(C(F)(F)F)cc4)cc(C)n3)n2)c1")
"244 °C"
>>> observed_result("COc1ccc2c(c1)C(CCNC(=O)C(F)(F)F)=C(c1ccccc1)C2")
"138 to 139 °C"
